# measured.on: human GPR119 (Homo sapiens)
# Construct: expressed in transfected cells; host or cells: Flp-In-CHO cells (Invitrogen, Cat. #R758-07), stably transfected with pcDNA5/FRT-human GPR119 plus pOG44
# Sequence (Q8TDV5 whole entry): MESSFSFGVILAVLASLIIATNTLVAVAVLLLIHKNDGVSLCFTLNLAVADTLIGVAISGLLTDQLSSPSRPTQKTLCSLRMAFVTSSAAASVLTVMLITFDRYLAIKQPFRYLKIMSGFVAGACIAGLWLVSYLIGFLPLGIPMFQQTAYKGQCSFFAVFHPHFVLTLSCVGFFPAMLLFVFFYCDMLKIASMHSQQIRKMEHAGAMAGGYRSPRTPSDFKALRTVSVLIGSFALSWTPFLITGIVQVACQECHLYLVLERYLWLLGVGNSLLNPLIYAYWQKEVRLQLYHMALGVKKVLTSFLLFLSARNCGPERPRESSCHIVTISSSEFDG
# protocol.description: Cyclic AMP assay in stable cell line (HTRF, Flp-In-CHO-hGPR119 cells)
# Format: cell-based
# conditions: increase in intracellular cAMP, 30 minutes at 37° C., 1 mM IBMX
EC50 class ranges: lower range = under 2 nM, middle range = from 2 nM up to 40 nM, upper range = 40 nM and over

[
  {
    "compound": "CCc1cnc(N2CCC(COc3c(F)cc(-c4cccc(Cc5nnn(C)n5)c4)cc3F)CC2)nc1",
    "measured.on": "human GPR119 (Homo sapiens)",
    "group": "middle range"
  },
  {
    "compound": "CCc1cnc(N2CCC(COc3c(F)cc(-c4ccc(CN(C)C(C)=O)cc4)cc3F)CC2)nc1",
    "measured.on": "human GPR119 (Homo sapiens)",
    "group": "upper range"
  },
  {
    "compound": "CCc1cnc(N2CCC(COc3c(F)cc(-c4ccc(Cn5ncnn5)cc4)cc3F)CC2)nc1",
    "measured.on": "human GPR119 (Homo sapiens)",
    "group": "middle range"
  },
  {
    "compound": "CCc1cnc(N2CCC(COc3c(F)cc(-c4cnc(N5CCCC5)nc4)cc3F)CC2)nc1",
    "measured.on": "human GPR119 (Homo sapiens)",
    "group": "upper range"
  },
  {
    "compound": "CN1CCN(C(=O)c2ncc(-c3cc(F)c(OCC4CCN(C(=O)OC5(C)CC5)CC4)c(F)c3)cn2)CC1",
    "measured.on": "human GPR119 (Homo sapiens)",
    "group": "middle range"
  },
  {
    "compound": "CCc1cnc(N2CCC(COc3c(F)cc(-c4ccc(C(C)(C)O)nc4)cc3F)CC2)nc1",
    "measured.on": "human GPR119 (Homo sapiens)",
    "group": "middle range"
  },
  {
    "compound": "CC1(OC(=O)N2CCC(COc3c(F)cc(-c4ccc(S(C)(=O)=O)cc4)cc3F)CC2)CC1 [Example D1]",
    "measured.on": "human GPR119 (Homo sapiens)",
    "group": "lower range"
  },
  {
    "compound": "CC(C)(C)OC(=O)N1CCC(COc2c(F)cc(-c3cc[n+]([O-])cc3)cc2F)CC1 [Example E1]",
    "measured.on": "human GPR119 (Homo sapiens)",
    "group": "middle range"
  }
]

Lab note: which band did "CCc1cnc(N2CCC(COc3c(F)cc(-c4ccc(-n5cncn5)nc4C)cc3F)CC2)nc1" land in?
lower range

Lab note: which band did "CC1(OC(=O)N2CCC(COc3c(F)cc(-c4cnc(C(=O)N5CC[C@H](O)C5)nc4)cc3F)CC2)CC1" land in?
upper range

Lab note: which band did "CCc1cnc(N2CCC(COc3c(F)cc(-c4ccc(-c5cnco5)cc4)cc3F)CC2)nc1" land in?
middle range

Lab note: which band did "COc1cc(-c2cc(F)c(OCC3CCN(C(=O)OC(C)(C)C)CC3)c(F)c2)ccn1" land in?
upper range

Lab note: which band did "CCc1cnc(N2CCC(COc3c(F)cc(-c4ccc(S(C)(=O)=O)cc4)cc3F)CC2)nc1" land in?
lower range

Lab note: which band did CCCS(=O)(=O)c1ccc(-c2cc(F)c(OCC3CCN(C(=O)OC(C)CC)CC3)c(F)c2)c(C)n1 (stereo not drawn) land in?
lower range
